composite z-score overview
Target: Torsin-1A-interacting protein 1 (Homo sapiens) (UniProt Q5JTV8)
Sequence (Q5JTV8 whole entry, looked up): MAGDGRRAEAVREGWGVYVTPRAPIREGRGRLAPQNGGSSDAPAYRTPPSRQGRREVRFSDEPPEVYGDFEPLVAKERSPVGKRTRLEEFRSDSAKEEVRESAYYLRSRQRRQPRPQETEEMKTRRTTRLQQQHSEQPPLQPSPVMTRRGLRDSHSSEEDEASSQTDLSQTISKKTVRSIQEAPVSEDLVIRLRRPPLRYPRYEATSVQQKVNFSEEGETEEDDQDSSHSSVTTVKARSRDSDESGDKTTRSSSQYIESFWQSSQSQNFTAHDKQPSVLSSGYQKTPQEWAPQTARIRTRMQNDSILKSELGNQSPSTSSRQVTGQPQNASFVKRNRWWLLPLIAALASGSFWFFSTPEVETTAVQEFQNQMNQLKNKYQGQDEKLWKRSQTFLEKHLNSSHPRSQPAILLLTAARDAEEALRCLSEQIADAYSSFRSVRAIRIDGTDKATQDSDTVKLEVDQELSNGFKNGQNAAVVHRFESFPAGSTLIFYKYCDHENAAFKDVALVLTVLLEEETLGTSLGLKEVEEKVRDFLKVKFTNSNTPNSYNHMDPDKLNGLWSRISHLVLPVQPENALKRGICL
Test: LAP1 binders from COS7 cell lysate, primary screen, small-molecule microarray, 635/667 nm fluorescence (AID 1116)
Details: COS7-hLAP1 lysate binding, 635 nm fluorescence, higher = more signal
Enter a number only.

COc1cccc(/C=C(\C#N)C(=O)Nc2c(C)n(C)n(-c3ccccc3)c2=O)c1
0.569
COc1ccc(NC(=O)O[C@H]2[C@@H]3OC(=O)[C@H](Cc4cccc(Br)c4)C/C=C/C[C@@H](Cc4cccc(Br)c4)C(=O)O[C@H]3[C@@H](OC)O[C@@H]2CO)cc1
0.882
CCC(CC)C(O)C1C=CC2C(=O)N(c3ccccc3)C(=O)C2N1Nc1ccc([N+](=O)[O-])cc1 (stereo not drawn)
0.0001

Req: What does the record list as composite z-score for O=C(CS)NCCCCCCNC(=O)[C@@H]1C[C@@H]2C(=O)NCC(=O)N2[C@@H]1c1ccc(O)cc1 ?
Resp: -0.549

Req: What does the record list as composite z-score for COC(=O)C(CC#Cc1ccc2c(c1)[C@]1(C(=O)N2)[C@H](c2ccc(OCCO)cc2)N2[C@H](c3ccccc3)[C@H](c3ccccc3)OC(=O)[C@H]2[C@@H]1C(=O)N1CCN(c2ncccn2)CC1)C(=O)OC ?
Resp: 1.2

Req: What does the record list as composite z-score for CN1C(=O)C2C=CC(C(O)c3ccc(I)cc3)N(Nc3ccccc3)C2C1=O (stereo not drawn) ?
Resp: 0.0151

Req: What does the record list as composite z-score for O=c1cccc(-c2ccc(F)cc2)o1 ?
Resp: -0.184

Req: What does the record list as composite z-score for CC=CC(O)C1C=CC2C(=O)NC(=O)C2N1Nc1ccccn1 (stereo not drawn) ?
Resp: 0.372
